System: Vγ2Vδ2 T cells
Assay: gammadelta T cell stimulation (TNF-α release assay)
Format: cell-based, human
Settings: Table 3, additional testing; read-out: gammadelta T cell stimulation EC50
Excerpt: We then investigated the activity of each compound in inhibiting the FPPS from L. major, in Dictyostelium discoideum growth inhibition and in γδ T cell activation. We used the FPPS from L. major since this enzyme is the putative bisphosphonate target in several trypanosomatid species.
ENDPOINT_NAME: pEC50
Bear in mind: pEC50 is minus log10 of a mol/L concentration; give just that figure.

I am curious: what pEC50 value has been reported for O=P([O-])(O)C(C[n+]1cccc(-c2ccccc2)c1)P(=O)(O)O (stereo not shown) [Compound 472] ? 5.68

###

test system: Vγ2Vδ2 T cells; experiment: gammadelta T cell stimulation (TNF-α release assay); format: cell-based, human; conditions: Table 3, additional testing; read-out: gammadelta T cell stimulation EC50
Collected pEC50 values appear next to each entry.
// field semantics: pEC50 = negative decimal log of concentration (mol/L)

# count of solved cases: 4
O=P([O-])(O)C(O)(C[n+]1ccc(Cc2ccccc2)cc1)P(=O)(O)O (centres unmarked) [Compound 443] | 3.73
O=P([O-])(O)C(O)(C[n+]1cccc(Cc2ccccc2)c1)P(=O)(O)O (centres unmarked) [Compound 335] | 4.20
Cc1ccc[n+](CC(P(=O)([O-])O)P(=O)(O)O)c1 (centres unmarked) [Compound 474] | 5.62
O=P([O-])(O)C(C[n+]1cccc(F)c1)P(=O)(O)O (centres unmarked) [Compound 477] | 5.74

Continue with the next compound.
Item under review: CCCCc1ccc[n+](CC(P(=O)([O-])O)P(=O)(O)O)c1 (centres unmarked) [Compound 476] . Reported pEC50? 5.70

###

tested on: Dictyostelium discoideum; test: D. discoideum cell growth inhibition; type: cell-based; settings: Table 4; read-out: (1) D. discoideum IC50
In this section we review reported log10 IC50 values for a set of molecules.
Answers are given as log10 of IC50 in µM.

CC(C)C#Cc1ccc[n+](CC(P(=O)([O-])O)P(=O)(O)O)c1 (stereo not drawn) [Compound 602] | 0.31

Which log10 IC50 reading was recorded for the molecule O=P([O-])(O)C(C[n+]1cccc(I)c1)P(=O)(O)O (stereo not drawn) [Compound 542] ? 0.23

###

Molecular target: human FPPS (Homo sapiens, UniProt P14324)
Sequence (P14324 1-419): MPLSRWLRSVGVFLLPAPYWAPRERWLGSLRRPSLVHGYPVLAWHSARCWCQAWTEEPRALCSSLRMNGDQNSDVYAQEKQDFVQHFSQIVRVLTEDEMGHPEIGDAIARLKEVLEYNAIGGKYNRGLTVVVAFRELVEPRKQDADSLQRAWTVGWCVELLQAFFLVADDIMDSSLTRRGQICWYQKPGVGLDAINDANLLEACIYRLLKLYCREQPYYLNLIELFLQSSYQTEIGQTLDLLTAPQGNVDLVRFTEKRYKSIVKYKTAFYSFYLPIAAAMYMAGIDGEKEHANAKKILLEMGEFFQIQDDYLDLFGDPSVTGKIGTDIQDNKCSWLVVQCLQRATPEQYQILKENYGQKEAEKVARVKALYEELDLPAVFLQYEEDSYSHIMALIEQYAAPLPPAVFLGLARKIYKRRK
Assay: human FPPS assay
Format: biochemical
Conditions: Table 4; read-out: (2) human FPPS IC50
ENDPOINT_NAME: pIC50
Formally, pIC50 is defined as -log10 of the concentration c, with c in mol/L.

Examples from the recorded data:
O=P([O-])(O)C(O)(C[n+]1cccc(O)c1)P(=O)(O)O (centres unmarked) | 5.57
O=P([O-])(O)C(C[n+]1cccc(C(F)(F)F)c1)P(=O)(O)O (centres unmarked) | 5.60
O=P([O-])(O)C(O)(C[n+]1cccc(I)c1)P(=O)(O)O (centres unmarked) | 5.80
CN(C)c1cc[n+](CC(O)(P(=O)([O-])O)P(=O)(O)O)cc1 (centres unmarked) | 3.55
CCOc1cccc(-c2ccc[n+](CC(P(=O)([O-])O)P(=O)(O)O)c2)c1 (centres unmarked) | 4.96

Request - read-out pIC50 | tested on human FPPS (Homo sapiens, UniProt P14324) | compound CCCCC#Cc1ccc[n+](CC(P(=O)([O-])O)P(=O)(O)O)c1 (centres unmarked) 5.72

Which measured pIC50 belongs to O=P([O-])(O)C(C[n+]1cccc(F)c1)P(=O)(O)O (centres unmarked) , tested on human FPPS (Homo sapiens, UniProt P14324)? 5.85

Request - read-out pIC50 | tested on human FPPS (Homo sapiens, UniProt P14324) | compound O=P([O-])(O)C(C[n+]1cccc(I)c1)P(=O)(O)O (centres unmarked) 5.92

###

Target: L. major FPPS (Leishmania major, UniProt Q4QBL1)
Sequence (Q4QBL1 1-362): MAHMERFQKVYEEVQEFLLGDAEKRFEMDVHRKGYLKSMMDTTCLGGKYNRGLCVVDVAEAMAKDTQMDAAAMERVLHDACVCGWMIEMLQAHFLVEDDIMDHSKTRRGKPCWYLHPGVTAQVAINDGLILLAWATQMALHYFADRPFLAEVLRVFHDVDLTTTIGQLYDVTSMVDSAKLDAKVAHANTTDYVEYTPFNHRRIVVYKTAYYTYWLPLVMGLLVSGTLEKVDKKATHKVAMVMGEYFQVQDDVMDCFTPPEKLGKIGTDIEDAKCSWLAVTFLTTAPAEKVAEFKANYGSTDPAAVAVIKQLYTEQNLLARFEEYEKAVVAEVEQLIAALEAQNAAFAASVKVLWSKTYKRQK
Test: biochemical
Type: biochemical
Details: Table 5; read-out: (7) L. major FPPS Ki
// reported Ki for each item listed

Reference set (2 entries):
Cc1cccc(Cc2ccc[n+](CC(O)(P(=O)([O-])O)P(=O)(O)O)c2)c1 (stereo not drawn) [Compound 344] | 70 nM
O=P([O-])(O)C(O)(C[n+]1cccc(Cc2ccccc2)c1)P(=O)(O)O (stereo not drawn) [Compound 335] | 160 nM

Now take the following molecule into account.
Please look up its Ki: O=P([O-])(O)C(O)(C[n+]1cccc(F)c1)P(=O)(O)O (stereo not drawn) [Compound 461] 50 nM

###

system: fetal mouse metatarsals; test: bone resorption assay: 45Ca2+ release from 17-day old fetal mouse metatarsals; format: cell-based; details: Table 4
Recorded pIC50 values for a group of compounds are listed next.
// pIC50 here means minus log10 of the molar concentration (mol/L)

COc1ccc[n+](CC(O)(P(=O)([O-])O)P(=O)(O)O)c1 (centres unmarked) | 6.43

Given Cc1ccc[n+](CC(O)(P(=O)([O-])O)P(=O)(O)O)c1 (centres unmarked) , state its recorded pIC50. 6.66

###

test system: Dictyostelium discoideum; experiment: D. discoideum cell growth inhibition; assay type: cell-based; details: Table 4; read-out: (1) D. discoideum IC50
ENDPOINT_NAME: pIC50
FYI, pIC50 means -log10 of a concentration in mol per litre.

Check out these entries, answers already filled in.
Cc1ccc2ccc[n+](CC(O)(P(=O)([O-])O)P(=O)(O)O)c2c1 (centres unmarked) | 4.85
Cc1ccc2c(ccc[n+]2CC(O)(P(=O)([O-])O)P(=O)(O)O)c1 (centres unmarked) | 4.14

Then this compound:
Item Cc1ccc[n+](CC(O)(P(=O)([O-])O)P(=O)(O)O)c1 (centres unmarked) has what recorded pIC50? 5.55

###

test system: Dictyostelium discoideum; test: D. discoideum cell growth inhibition; assay type: cell-based; conditions: Table 4; read-out: (1) D. discoideum IC50
pIC50: −log10 of the molar value.
Short version: pIC50 at least 5 is T, less is F.

O=P([O-])(O)C(O)(C[n+]1cccc(I)c1)P(=O)(O)O (centres unmarked) | T
O=P([O-])(O)C(O)(C[n+]1ccc(C(F)(F)F)cc1)P(=O)(O)O (centres unmarked) | F
COc1cccc(-c2ccc[n+](CC(P(=O)([O-])O)P(=O)(O)O)c2)c1 (centres unmarked) | T
O=P([O-])(O)C(C[n+]1ccc(Cc2ccccc2)cc1)P(=O)(O)O (centres unmarked) | T
O=P([O-])(O)C(C[n+]1cccc(F)c1)P(=O)(O)O (centres unmarked) | T
O=P([O-])(O)C(O)(C[n+]1cccc(O)c1)P(=O)(O)O (centres unmarked) | F
COc1cc[n+](CC(O)(P(=O)([O-])O)P(=O)(O)O)cc1 (centres unmarked) | F
CCCCc1ccc[n+](CC(O)(P(=O)([O-])O)P(=O)(O)O)c1 (centres unmarked) | T
CC([n+]1ccccc1)C(O)(P(=O)([O-])O)P(=O)(O)O (single isomer, unassigned) [Compound 583] | F
O=P([O-])(O)C(O)(C[n+]1cccc(-c2ccc(F)cc2)c1)P(=O)(O)O (centres unmarked) | T

Hello, I need to know if CCc1ccc[n+](CC(P(=O)([O-])O)P(=O)(O)O)c1 (centres unmarked) has measured pIC50 not below 5. Thanks! T

Say whether O=P([O-])(O)C(C[n+]1ccccc1F)P(=O)(O)O (centres unmarked) shows pIC50 of 5 or more. F

Would you say O=P([O-])(O)C(O)(C[n+]1cccc2cc(Cl)ccc21)P(=O)(O)O (centres unmarked) shows pIC50 at minimum 5? F

Is it the case that O=P([O-])(O)C(O)(C[n+]1cccc(-c2ccc(C(F)(F)F)cc2)c1)P(=O)(O)O (centres unmarked) has pIC50 reaching or exceeding 5? T

Record O=P([O-])(O)C(C[n+]1cccc(S(=O)(=O)N2CCCC2)c1)P(=O)(O)O (centres unmarked) ; criterion: pIC50 no lower than 5. Met? F
